Cited source for all entries: patent US20130225517A1

# assay.target: Dnmt1 (Homo sapiens)
# Sequence (P26358 whole entry): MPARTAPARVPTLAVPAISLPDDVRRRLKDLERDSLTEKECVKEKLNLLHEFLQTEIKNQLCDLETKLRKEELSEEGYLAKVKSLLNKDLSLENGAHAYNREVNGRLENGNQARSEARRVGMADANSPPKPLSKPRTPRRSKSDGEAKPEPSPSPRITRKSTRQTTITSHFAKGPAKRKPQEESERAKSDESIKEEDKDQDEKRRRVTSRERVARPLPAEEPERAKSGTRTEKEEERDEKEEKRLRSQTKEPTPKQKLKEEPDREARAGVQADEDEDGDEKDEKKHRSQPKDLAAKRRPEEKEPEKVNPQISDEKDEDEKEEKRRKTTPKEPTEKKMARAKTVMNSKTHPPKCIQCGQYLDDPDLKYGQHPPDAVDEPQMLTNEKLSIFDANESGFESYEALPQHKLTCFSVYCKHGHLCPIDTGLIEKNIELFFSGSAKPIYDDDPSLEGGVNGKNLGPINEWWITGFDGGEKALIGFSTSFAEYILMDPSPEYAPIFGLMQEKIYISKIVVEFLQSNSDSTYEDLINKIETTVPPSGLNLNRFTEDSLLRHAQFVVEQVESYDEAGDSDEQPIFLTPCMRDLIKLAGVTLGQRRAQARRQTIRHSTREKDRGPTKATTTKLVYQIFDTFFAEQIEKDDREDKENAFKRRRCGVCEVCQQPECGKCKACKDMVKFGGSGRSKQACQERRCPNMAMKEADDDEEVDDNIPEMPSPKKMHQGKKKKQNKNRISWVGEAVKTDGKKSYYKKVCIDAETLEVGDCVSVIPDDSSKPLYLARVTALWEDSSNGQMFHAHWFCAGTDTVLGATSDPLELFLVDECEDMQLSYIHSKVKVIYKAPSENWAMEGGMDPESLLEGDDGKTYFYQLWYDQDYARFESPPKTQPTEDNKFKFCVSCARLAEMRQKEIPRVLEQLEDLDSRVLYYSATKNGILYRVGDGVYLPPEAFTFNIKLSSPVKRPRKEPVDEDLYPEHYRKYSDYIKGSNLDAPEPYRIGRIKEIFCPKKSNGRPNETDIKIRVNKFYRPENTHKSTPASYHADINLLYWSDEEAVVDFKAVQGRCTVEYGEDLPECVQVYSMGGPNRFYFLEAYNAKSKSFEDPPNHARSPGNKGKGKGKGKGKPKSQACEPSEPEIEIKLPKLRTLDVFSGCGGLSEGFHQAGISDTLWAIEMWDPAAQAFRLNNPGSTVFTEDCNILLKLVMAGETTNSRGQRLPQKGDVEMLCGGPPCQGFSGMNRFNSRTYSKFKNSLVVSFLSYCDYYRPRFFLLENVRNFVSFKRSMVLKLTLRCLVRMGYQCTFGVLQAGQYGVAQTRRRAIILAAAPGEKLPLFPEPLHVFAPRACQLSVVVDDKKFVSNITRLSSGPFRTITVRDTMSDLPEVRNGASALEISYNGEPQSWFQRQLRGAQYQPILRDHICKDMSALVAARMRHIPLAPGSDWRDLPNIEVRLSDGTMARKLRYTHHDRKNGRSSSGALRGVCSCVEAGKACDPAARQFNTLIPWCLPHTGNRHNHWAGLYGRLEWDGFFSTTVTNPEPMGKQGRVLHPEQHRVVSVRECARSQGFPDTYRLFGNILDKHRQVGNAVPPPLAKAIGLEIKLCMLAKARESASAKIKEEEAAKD
# measurement.notes: Glal restriction endonuclease-coupled DNA methylation assay (Test A)
# Type: biochemical
# test.context: increasing concentrations in the endonuclease-coupled DNA methylation assay; read-out: IC50 value, inhibition of Dnmt1 activity
measured.quantity: pIC50
pIC50 field: float, defined as -log10 of concentration (mol/L).

// pIC50 lookup, key: CC(=O)NCCc1ccc(O)c(-c2c(O)c(O)c3c(c2O)C(=O)c2c(cc(O)c(C(=O)O)c2C(=O)O)C3=O)c1 [II, Laccaic Acid A]
6.40
